measured-target: Bifunctional 3'-5' exonuclease/ATP-dependent helicase WRN (Homo sapiens)
assay-explanation: qHTS for Inhibitors of WRN Helicase; further: nearly all actives have a fitted effect of over 55% in size; further: potency means the concentration at half of the fitted maximal effect
test-settings: WRN helicase unwinding, fluorescent forked duplex, kinetic; series mostly up to 114 µM
Among all 360,000 compounds or so, about 1,700 (0.47%) were called active. Roughly 2% stayed inconclusive and do not appear here. The sample as a whole holds a higher share of actives than the screen did.
attribute-measured: Potency

Use these answered entries as a reference point.
compound: CC(Cc1cccs1)NCc1ccc(Cl)cc1 (stereo unspecified)
Potency: inactive
--
compound: COc1ccc(-c2nc(CS(=O)CC(=O)N3CCC4(CC3)OCCO4)c(C)o2)cc1 (stereo unspecified)
Potency: inactive
--
compound: N#Cc1ccc(Cn2cc(C(=O)c3ccco3)c3ccccc32)cc1
Potency: inactive
--
compound: CCOC(=O)[C@]12Cc3ccccc3[C@H]1N(C1CCCCC1)C(=O)c1cc(OC)ccc12
Potency: inactive
--
compound: CC(C)(C)c1ccc(CN2C(=O)CN=C(c3ccccc3)c3ccccc32)cc1
Potency: inactive

Measured Potency of COc1ccccc1N=Nc1c(O)[nH]c(=S)[nH]c1=O : inactive

Documented Potency of COC(=O)C[C@H]1CC[C@H]2NC[C@@H](O)COC[C@@H]2O1 : inactive

For record O=C1NC(=O)N(c2ccc(F)cc2)C(=O)/C1=C/c1ccc2c(c1)CCCN2Cc1ccccc1 the listed Potency is inactive

Lookup result for CC1(C)C(c2ccccc2)=NC(c2cccnc2)=[N+]1[O-] ; measured Potency: 50.1 µM (active)

For record CC(C)(C)[C@]1(O)C[C@@H]2OC(=O)C[C@@]23C(=O)O[C@@H]2OC(=O)[C@H](O)[C@]213 the listed Potency is inactive

Potency measured on CCCCCCCCCCCCn1ccc(=N)cc1 = inactive

# compound Cc1ccc2c(c1)=C/C(=C\c1c(O)[nH]c(=O)[nH]c1=O)C(=O)N=2 ; its Potency = 39.8 µM (active)

According to the records, this compound O=c1[nH]c(=S)[nH]c(O)c1/C=C1\C=Nc2ccccc21 displays Potency of 50.1 µM (active)

In plain terms, CCOP(=O)(OCC)C(NC(=O)c1ccc(C)cc1)C(Cl)(Cl)Cl (stereo unspecified) has a documented Potency of inactive

// CC(=O)N1CN2CN(C(C)=O)CC(C(=O)c3ccc(Br)cc3)(C2)C1 : Potency value = inactive

Value of measured Potency for the entry O=C1N=c2ccccc2=C/C1=C\c1c(O)[nH]c(=S)[nH]c1=O : inactive

According to the records, this compound COc1ccc(S(=O)(=O)NCc2ccc(C(=O)N3CCC4(CC3)OCCO4)cc2)cc1 displays Potency of inactive

Record COc1ccc(CCn2c(O)c(C=NCCCn3ccnc3)c(=O)[nH]c2=O)cc1OC , field Potency: inactive

Potency for C=CCN1C(=O)NC(=O)/C(=C/c2ccc(OCC(=O)Nc3ccc(C)cc3)cc2)C1=O is inactive

For O=C(CN1CCCC1=O)NCCc1ccccc1 the compound record lists Potency as inactive

Looking up O=C1NC(=O)N(Cc2ccco2)C(=O)/C1=C\c1ccc(-c2ccc(F)cc2)o1 , I found its Potency recorded as 31.6 µM (active)

What the record says about O=c1[nH]c(O)c(C=Nc2cc(F)cc(F)c2)c(=O)[nH]1 : Potency is inactive

The recorded Potency for O=c1[nH]c2ccccc2n1C1CCN(C(c2ccccc2)c2nnnn2Cc2ccccc2)CC1 (stereo unspecified) is inactive

Recorded Potency (compound O=C(O)COc1ccccc1/C=C1\C(=O)NC(=O)N(CCC2=CCCCC2)C1=O ): 39.8 µM (active)

response.value for CCCCCn1c(=O)c(C(=O)Nc2c(C)n(C)n(-c3ccccc3)c2=O)c(O)c2ccccc21 (field: Potency) = inactive

Potency reading for O=C1NC(=O)N(CCc2ccc(F)cc2)C(=O)/C1=C/C=C/c1ccccc1 : inactive
